# TARGET: mutant CFTR (Homo sapiens, UniProt P13569, DEL508-508)
# Construct: expressed in transfected cells
# Sequence (P13569 with tags, fused parts or gaps DEL508-508): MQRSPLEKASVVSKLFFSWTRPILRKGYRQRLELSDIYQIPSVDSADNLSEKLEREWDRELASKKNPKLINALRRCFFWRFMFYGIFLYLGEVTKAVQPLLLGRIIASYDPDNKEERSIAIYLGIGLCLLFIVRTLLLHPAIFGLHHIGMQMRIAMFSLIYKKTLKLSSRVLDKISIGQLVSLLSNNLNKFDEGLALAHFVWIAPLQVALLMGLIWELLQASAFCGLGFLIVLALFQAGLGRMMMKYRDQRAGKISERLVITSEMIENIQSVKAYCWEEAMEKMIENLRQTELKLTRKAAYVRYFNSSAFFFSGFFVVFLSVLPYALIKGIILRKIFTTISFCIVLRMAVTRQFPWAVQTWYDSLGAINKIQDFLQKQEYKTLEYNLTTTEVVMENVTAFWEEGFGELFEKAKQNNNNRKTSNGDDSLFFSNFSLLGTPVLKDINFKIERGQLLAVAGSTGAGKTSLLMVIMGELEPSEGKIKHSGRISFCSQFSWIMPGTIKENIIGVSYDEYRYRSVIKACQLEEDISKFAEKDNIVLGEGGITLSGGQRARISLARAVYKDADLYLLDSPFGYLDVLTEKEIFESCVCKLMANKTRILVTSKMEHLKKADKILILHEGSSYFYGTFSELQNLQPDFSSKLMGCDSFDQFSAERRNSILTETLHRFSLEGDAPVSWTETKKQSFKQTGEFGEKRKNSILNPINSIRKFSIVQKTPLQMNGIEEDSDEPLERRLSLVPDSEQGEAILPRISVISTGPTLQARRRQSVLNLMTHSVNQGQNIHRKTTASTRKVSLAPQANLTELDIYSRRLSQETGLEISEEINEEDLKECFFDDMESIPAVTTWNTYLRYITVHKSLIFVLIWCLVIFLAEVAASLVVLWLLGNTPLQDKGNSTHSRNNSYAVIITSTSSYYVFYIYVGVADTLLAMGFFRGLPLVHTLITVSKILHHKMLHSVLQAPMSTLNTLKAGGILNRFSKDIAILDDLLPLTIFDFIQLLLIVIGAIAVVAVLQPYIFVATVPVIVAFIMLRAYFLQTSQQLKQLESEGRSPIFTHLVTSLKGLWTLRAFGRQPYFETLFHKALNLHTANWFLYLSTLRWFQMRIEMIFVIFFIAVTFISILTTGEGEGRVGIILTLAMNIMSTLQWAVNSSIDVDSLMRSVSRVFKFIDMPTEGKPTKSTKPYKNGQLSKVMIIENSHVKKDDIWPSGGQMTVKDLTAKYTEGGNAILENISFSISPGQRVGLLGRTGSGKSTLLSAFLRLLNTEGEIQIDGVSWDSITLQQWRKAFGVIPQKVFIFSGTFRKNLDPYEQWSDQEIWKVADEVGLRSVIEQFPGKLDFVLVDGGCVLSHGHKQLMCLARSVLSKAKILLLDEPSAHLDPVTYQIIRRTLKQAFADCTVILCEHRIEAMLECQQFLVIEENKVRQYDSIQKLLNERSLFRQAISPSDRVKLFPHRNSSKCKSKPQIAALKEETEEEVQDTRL
# TEST_DETAILS: Fluorescence (HS-YFP) assay for CFTR activity, corrector assay
# Format: cell-based
# CONDITIONS: CFBE41o- and FRT cells with stable expression of mutant CFTR, read-out: activity (EC50)
Quick list: EC50 per entry.
QUANTITY_NAME: EC50

>  <MOLECULE>
CN(C(=O)c1cccc(-n2nc(C(F)(F)F)c3c2C(Oc2ccc(C(=O)O)cc2)CCC3)c1)c1cnc2c(c1)OCC2 (single isomer, unassigned) [Compound 275]

>  <REPORTED_VALUE>
< 1000 nM

$$$$
>  <MOLECULE>
CN(C(=O)c1cccc(-n2nc(C(F)(F)F)c3c2CCN(S(=O)(=O)c2ccccc2C(=O)O)C3)c1)c1ccc2c(c1)OCO2

>  <REPORTED_VALUE>
> 2000 nM

$$$$
>  <MOLECULE>
CN(C(=O)c1cccc(-n2nc(C(F)(F)F)c3c2CCN(C[C@H](O)CO)C3)c1)c1ccc2c(c1)OCO2

>  <REPORTED_VALUE>
< 1000 nM

$$$$
>  <MOLECULE>
CC(C)N1CCc2c(c(C(F)(F)F)nn2-c2cccc(C(=O)N(C)c3ccc4c(c3)OCO4)c2)C1

>  <REPORTED_VALUE>
< 1000 nM

$$$$
>  <MOLECULE>
Cc1n[nH]c2ncc(NC(=O)c3cccc(-n4nc(C(F)(F)F)c5c4CCN(C(=O)C(C)(C)C)C5)c3)cc12

>  <REPORTED_VALUE>
> 2000 nM

$$$$
>  <MOLECULE>
CN(C(=O)c1cccc(-n2nc(C(F)(F)F)c3c2C(Oc2cncc(C(=O)O)c2)CCC3)c1)c1ccc2c(c1)OC(F)(F)O2 (stereo not drawn) [Compound 178]

>  <REPORTED_VALUE>
< 1000 nM

$$$$

----------
# TARGET: mutant CFTR (Homo sapiens, UniProt P13569, DEL508-508)
# Construct: expressed in transfected cells
# TEST_DETAILS: Fluorescence (HS-YFP) assay for CFTR activity, corrector assay
# Format: cell-based
# CONDITIONS: CFBE41o- and FRT cells with stable expression of mutant CFTR, read-out: activity (EC50)
pEC50: −log10 of the molar value. Counter-ions that a name gives are not always drawn.

>  <MOLECULE>
CN(C(=O)c1cccc(-n2nc(C(F)(F)F)c3c2C(Oc2cccc(C(=O)O)c2)CCC3)c1)c1ccc2c(c1)OC(F)(F)O2 (single isomer, unassigned) [Compound 188]

>  <pEC50>
> 6.00

$$$$
>  <MOLECULE>
CN(C(=O)c1cccc(-n2nc(C(F)(F)F)c3c2CN(C(=O)OC(C)(C)C)CC3)c1)c1ccc2c(c1)OCO2 [Compound 027]

>  <pEC50>
> 6.00

$$$$
>  <MOLECULE>
CN(C(=O)c1cccc(-n2nc(C(F)(F)F)c3c2C(Oc2ncc(C(=O)O)cn2)COC3)c1)c1ccc2c(c1)OCC2 (single isomer, unassigned) [Compound 299]

>  <pEC50>
5.70 to 6.00

$$$$
>  <MOLECULE>
CN(C(=O)c1cccc(-n2nc(C(F)(F)F)c3c2C(Oc2ccc(C(=O)O)nc2)CCC3)c1)c1ccc2c(c1)OC(F)(F)O2 (stereo not shown) [Compound 164]

>  <pEC50>
> 6.00

$$$$
>  <MOLECULE>
CN(C(=O)c1cccc(-n2nc(C(F)(F)F)c3c2C(Oc2ccc(C(=O)O)cc2)CCC3)c1)c1cccc(OC(F)F)c1 (racemic) [Compound 266]

>  <pEC50>
5.70 to 6.00

$$$$
>  <MOLECULE>
CN(C(=O)c1cccc(-n2nc(C(F)(F)F)c3c2C(Oc2ccc(CC(=O)O)cc2)CCC3)c1)c1ccc2c(c1)OC(F)(F)O2 (racemic) [Compound 318]

>  <pEC50>
> 6.00

$$$$
>  <MOLECULE>
Cc1nc2ccc(NC(=O)c3cccc(-n4nc(C(F)(F)F)c5c4CCN(C(=O)C(C)(C)C)C5)c3)cn2n1 [Compound 078]

>  <pEC50>
< 5.70

$$$$
>  <MOLECULE>
CN(C(=O)c1cccc(-n2nc(C(F)(F)F)c3c2C(Oc2ncc(C(=O)O)cn2)COC3)c1)c1cnc2c(c1)OCC2 (racemic) [Compound 300]

>  <pEC50>
> 6.00

$$$$
>  <MOLECULE>
CN(C(=O)c1cccc(-n2nc(C(F)(F)F)c3c2CCOC3)c1)c1ccc2c(c1)OCO2 [Compound 054]

>  <pEC50>
> 6.00

$$$$
>  <MOLECULE>
CN1CCc2c(c(C(F)(F)F)nn2-c2cccc(S(=O)(=O)N(C)c3ccc4c(c3)OCO4)c2)C1 [Compound 071]

>  <pEC50>
< 5.70

$$$$
>  <MOLECULE>
CN(c1ccc2c(c1)OCO2)S(=O)(=O)c1cccc(-n2nc(C(F)(F)F)c3c2CCNC3)c1 [Compound 066, hydrochloride]

>  <pEC50>
> 6.00

$$$$
>  <MOLECULE>
CN(C(=O)c1cccc(-n2nc(C(F)(F)F)c3c2C(Oc2ccc(C(=O)O)cc2)CCC3)c1)c1ccc2c(c1)OC(F)(F)O2 (stereo not shown) [Compound 109]

>  <pEC50>
> 6.00

$$$$
>  <MOLECULE>
CN(C(=O)c1cccc(-n2nc(C(F)(F)F)c3c2C(Oc2ccc(C(=O)O)cc2)COC3)c1)c1ccc2c(c1)OCC2 (racemic) [Compound 265]

>  <pEC50>
> 6.00

$$$$

----------
# TARGET: mutant CFTR (Homo sapiens, UniProt P13569, DEL508-508)
# Construct: expressed in transfected cells
# TEST_DETAILS: Fluorescence (HS-YFP) assay for CFTR activity, corrector assay
# Format: cell-based
# CONDITIONS: CFBE41o- and FRT cells with stable expression of mutant CFTR, read-out: activity (EC50)
Reported EC50 values for a set of compounds
QUANTITY_NAME: EC50

>  <COMPOUND>
CN(C(=O)c1cccc(-n2nc(C(F)(F)F)c3c2C(Oc2ccc(C(=O)O)nc2)CCC3)c1)c1ccc2c(c1)OC(F)(F)O2 (single isomer, unassigned) [Compound 186]

>  <TARGET>
mutant CFTR (Homo sapiens, UniProt P13569, DEL508-508)

>  <REPORTED_VALUE>
< 1000 nM

$$$$
>  <COMPOUND>
Cc1nc2ccc(N(C)C(=O)c3cccc(-n4nc(C(F)(F)F)c5c4CCN(C(=O)OC(C)(C)C)C5)c3)cc2o1

>  <TARGET>
mutant CFTR (Homo sapiens, UniProt P13569, DEL508-508)

>  <REPORTED_VALUE>
< 1000 nM

$$$$
>  <COMPOUND>
CN(C(=O)c1cccc(-n2nc(C(F)(F)F)c3c2C(Oc2ccc(C(N)=O)cc2)CCC3)c1)c1ccc2c(c1)OC(F)(F)O2 (stereo not drawn) [Compound 162]

>  <TARGET>
mutant CFTR (Homo sapiens, UniProt P13569, DEL508-508)

>  <REPORTED_VALUE>
< 1000 nM

$$$$
